- Tested on: A375 multi-cell spheroids with HUVEC/MSC, viability
- RUN DESCRIPTION: Anticancer human tumor A375 cell line growth inhibition [GQUAD];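 note: spheroids exposed to compounds for seven days before readout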
- RECORDED CONDITIONS: second compound 10 µM; first compound 0.1 µM; stronger effect = lower value
The class of a record is decided solely by its measured viability, T/C; consult group 1 (below 60%), group 2 (60% to below 90%), group 3 (90% or more)

Some solved cases for reference:
O=C(c1cc(Cc2n[nH]c(=O)c3ccccc23)ccc1F)N1CCN(C(=O)C2CC2)CC1 + CN(C)c1ccc(Nc2c3ccc(NC(=O)CCN4CCCC4)cc3nc3cc(NC(=O)CCN4CCCC4)ccc23)cc1 : group 3
O=C(NO)c1cnc(N2CCN(S(=O)(=O)c3ccc4ccccc4c3)CC2)nc1 + Cc1cnc(CNC(=O)c2c(=O)c3ccc(N4CCCN(C)CC4)nc3n3c2sc2ccccc23)cn1 : group 1
O=c1[nH]cc(F)c(=O)[nH]1 + Cc1cnc(CNC(=O)c2c(=O)c3ccc(N4CCCN(C)CC4)nc3n3c2sc2ccccc23)cn1 : group 1

Next, consider the following molecule.
Input line: Place this molecule in its band: C=CCn1c(=O)c2cnc(Nc3ccc(N4CCN(C)CC4)cc3)nc2n1-c1cccc(C(C)(C)O)n1 + Cc1[nH]c2ccc(F)cc2c1-c1nc2c3cccnc3c3ncccc3c2[nH]1
Output line: group 2
